Below, each entry is listed with its recorded % cells in cell cycle phase: aneuploid.
Test system: HeLa cells
Experiment: Cell cycle assay in HeLa cells
Format: cell-based, human
Conditions: HeLa cells, 150 nM oligomeric compound, 48 hours after treatment; relative to untreated control (UTC=100)
In the oligonucleotide strings, read from the 5' end, every base follows the letter of its sugar. An asterisk marks phosphorothioate; unmarked linkages are phosphodiester. Other units and linkages are bracketed, terminal groups are in braces. A string of capitals states the bases alone. e = 2'-O-(2-methoxyethyl) (MOE); [5mC] = 5-methylcytosine; d = 2'-deoxy (DNA)
measure_name: % cells in cell cycle phase: aneuploid (%)

substance	target_under_test	val
338690 (antisense TAGACAAAAACAGACTCTGA; all 2'-MOE, all phosphorothioate, methylation of C not given here) [compound 338690]	HeLa cells	190
340350 (antisense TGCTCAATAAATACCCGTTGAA; all 2'-MOE, all phosphorothioate, methylation of C not given here) [compound 340350]	HeLa cells	125
328759 (antisense eG*eA*eG*eG*eG*dA*dT*dT*dG*dT*dA*dT*dG*dA*dA*e[5mC]*eA*eT*e[5mC]*eT) [compound 328759]	HeLa cells	148
328644 (eG*eA*e[5mC]*eA*eA*dG*dG*dT*dG*dG*dG*dA*dG*d[5mC]*dG*eA*eG*eT*eG*eG; antisense) [compound 328644]	HeLa cells	82
327904 (antisense eA*e[5mC]*eT*e[5mC]*eA*e[5mC]*e[5mC]*eG*eA*e[5mC]*eA*eG*e[5mC]*eG*eT*eT*eG*eA*eA*eT*eG*eT*eT) [compound 327904]	HeLa cells	80

====

System: HuVECs
Experiment: Endothelial tube formation assay in HuVECs
Settings: 75 nM oligomeric compound, Table 57
In the oligonucleotide strings, read from the 5' end, every base follows the letter of its sugar. An asterisk marks phosphorothioate; unmarked linkages are phosphodiester. Other units and linkages are bracketed, terminal groups are in braces. A string of capitals states the bases alone. e = 2'-O-(2-methoxyethyl) (MOE); [5mC] = 5-methylcytosine
Below, each entry is listed with its recorded % Activity Relative to UTC (tube formation).
measure_name: % Activity Relative to UTC (tube formation)

substance	val
327916 (antisense eT*eG*eG*e[5mC]*eA*eT*eT*e[5mC]*eA*e[5mC]*e[5mC]*eG*e[5mC]*eG*eT*eG*e[5mC]*e[5mC]*eT*eT*eA*eA) [compound 327916]	96.6%
342672 (antisense eA*eT*eA*e[5mC]*e[5mC]*eG*e[5mC]*eG*eA*eT*e[5mC]*eA*eG*eT*eG*e[5mC]*eA*eT*e[5mC]*eT*eT*eT) [compound 342672]	58.6%
327915 (antisense eA*e[5mC]*eA*eT*eG*eG*eT*eT*eA*eG*eA*eT*e[5mC]*eA*eA*eG*e[5mC]*eA*e[5mC]*eA*eA) [compound 327915]	69.0%
327920 (antisense eG*eA*eG*eA*e[5mC]*e[5mC]*e[5mC]*eA*eG*eT*eA*eG*e[5mC]*e[5mC]*eA*eG*eA*eT*eG*eT*eA*eG*e[5mC]*eT) [compound 327920]	41.4%
327901 (antisense eT*eG*eA*eG*e[5mC]*eT*eA*e[5mC]*eA*eG*eT*eG*e[5mC]*eT*eT*e[5mC]*eA*eT*e[5mC]*eT*e[5mC]*eA) [compound 327901]	48.3%
327911 (antisense eG*e[5mC]*eT*eA*e[5mC]*e[5mC]*eT*eG*e[5mC]*eA*e[5mC]*eT*eG*eT*eA*eA*eG*e[5mC]*eA*e[5mC]*eT*eT*eT*eT) [compound 327911]	75.9%
327918 (antisense e[5mC]*eT*eA*eG*eT*eA*e[5mC]*eA*eT*e[5mC]*eA*eT*e[5mC]*eT*eA*eT*eA*e[5mC]*eT*eG*eT*eA) [compound 327918]	96.6%
327902 (antisense eG*eG*e[5mC]*eT*eG*eT*e[5mC]*eA*eA*eT*eT*e[5mC]*eA*eT*eA*eG*eG*eT*e[5mC]*eA*eG) [compound 327902]	41.4%
327919 (antisense eG*eA*eA*eA*e[5mC]*e[5mC]*e[5mC]*eA*eG*e[5mC]*eA*eG*eA*e[5mC]*eA*eA*eT*eG*eT*eA*eG*e[5mC]*eT) [compound 327919]	103.5%
327905 (antisense e[5mC]*eA*eG*eA*e[5mC]*eT*e[5mC]*e[5mC]*eG*eG*eT*eG*eG*eA*eA*eT*eG*eA*eA*eG*eG*eA) [compound 327905]	48.3%
327921 (antisense e[5mC]*eT*eT*e[5mC]*e[5mC]*eA*eG*eT*e[5mC]*eG*eG*eG*eG*eA*eT*eG*eT*eT*eT*eA*e[5mC]*eA) [compound 327921]	96.6%

====

Test system: Glut4
Experiment: Glut4 mRNA expression in adipocytes (real-time PCR)
Assay type: cell-based, human
Conditions: differentiating adipocytes transfected with oligomeric compound; Table 75
In the oligonucleotide strings, read from the 5' end, every base follows the letter of its sugar. An asterisk marks phosphorothioate; unmarked linkages are phosphodiester. Other units and linkages are bracketed, terminal groups are in braces. A string of capitals states the bases alone. e = 2'-O-(2-methoxyethyl) (MOE); [5mC] = 5-methylcytosine
Below, each entry is listed with its recorded GLUT4 mRNA.

substance	GLUT4 mRNA
346917 (CAGCUAUGCCAGCAUCUUGCCU; all 2'-MOE, all phosphorothioate, methylation of C and T or U not given here) [compound 346917]	20 percentage of untreated control (UTC)
346910 (GCAAUCAGCUAACUACACUGCCU; all 2'-MOE, all phosphorothioate, methylation of C and T or U not given here) [compound 346910]	63 percentage of untreated control (UTC)
327965 (antisense eA*eT*e[5mC]*eA*e[5mC]*eA*eT*eA*eG*eG*eA*eA*eT*eA*eA*eA*eA*eA*eG*e[5mC]*e[5mC]*eA*eT*eA) [compound 327965]	88 percentage of untreated control (UTC)

====

Tested on: IGFBP-1
Experiment: IGFBP-1 mRNA expression in HepG2 cells
Assay type: cell-based, human
Settings: Experiment 2, 1 nM insulin treated; HepG2; 100 nM oligomeric compound
In the oligonucleotide strings, read from the 5' end, every base follows the letter of its sugar. An asterisk marks phosphorothioate; unmarked linkages are phosphodiester. Other units and linkages are bracketed, terminal groups are in braces. A string of capitals states the bases alone. e = 2'-O-(2-methoxyethyl) (MOE); [5mC] = 5-methylcytosine; d = 2'-deoxy (DNA)

substance	IGFBP-1 (% UTC)
327913 (antisense eA*eA*e[5mC]*e[5mC]*eG*eA*eT*eT*eT*e[5mC]*eA*eA*eA*eT*eG*eG*eT*eG*e[5mC]*eT*eA*eG) [compound 327913]	147
327878 (antisense e[5mC]*eT*eA*eG*eT*eG*eG*eT*e[5mC]*e[5mC]*eT*eA*eA*eA*e[5mC]*eA*eT*eT*eT*e[5mC]*eA*e[5mC]) [compound 327878]	185
327922 (antisense eT*e[5mC]*eA*eG*eT*eT*eT*eT*eG*e[5mC]*eA*eT*eG*eG*eA*eT*eT*eT*eG*e[5mC]*eA*e[5mC]*eA) [compound 327922]	104
327876 (antisense eA*eA*e[5mC]*eA*e[5mC]*eT*eG*eA*eT*eT*eT*e[5mC]*eA*eA*eA*eT*eG*eG*eT*eG*e[5mC]*eT*eA) [compound 327876]	118
327892 (antisense eA*e[5mC]*eT*eT*eT*e[5mC]*eG*eG*eT*eT*eA*eT*e[5mC]*eT*eA*eG*e[5mC]*eT*eT*eT*eA) [compound 327892]	139
327890 (antisense eA*eG*e[5mC]*eA*e[5mC]*eA*eA*eA*e[5mC]*eT*eA*e[5mC]*eT*eA*e[5mC]*e[5mC]*eT*e[5mC]*eA) [compound 327890]	88
327903 (antisense eA*eA*e[5mC]*eT*eA*eT*eA*e[5mC]*eA*eA*e[5mC]*e[5mC]*eT*eA*e[5mC]*eT*eA*e[5mC]*e[5mC]*eT*e[5mC]*eA) [compound 327903]	81
327941 (antisense eA*eA*e[5mC]*e[5mC]*e[5mC]*eA*e[5mC]*e[5mC]*eG*eA*e[5mC]*eA*eG*e[5mC]*eA*eA*eT*eG*eA*eA*eT*eG*eT*eT) [compound 327941]	80
327954 (antisense eA*e[5mC]*eA*eA*eA*eG*eT*eT*e[5mC]*eT*eG*eT*eG*eA*eT*eG*e[5mC]*eA*e[5mC]*eT*eG*eA) [compound 327954]	120
327933 (antisense eA*eA*eG*eG*eG*eA*eT*eT*e[5mC]*e[5mC]*eT*eG*eG*eG*eA*eA*eA*eA*e[5mC]*eT*eG*eG*eA*e[5mC]) [compound 327933]	179
327934 (antisense eG*eG*eT*eA*e[5mC]*eA*eA*eT*e[5mC]*eA*eA*e[5mC]*eG*eG*eT*e[5mC]*eG*eA*eT*eG*eG*eT) [compound 327934]	244
327901 (antisense eT*eG*eA*eG*e[5mC]*eT*eA*e[5mC]*eA*eG*eT*eG*e[5mC]*eT*eT*e[5mC]*eA*eT*e[5mC]*eT*e[5mC]*eA) [compound 327901]	135
340927 (antisense eT*eG*eA*eG*e[5mC]*dT*dA*d[5mC]*dA*dG*dT*dG*d[5mC]*dT*dT*e[5mC]*eA*eT*e[5mC]*eT*e[5mC]*eA) [compound 340927]	285
327889 (antisense eG*eT*eG*eG*eT*eA*eA*eT*e[5mC]*e[5mC]*e[5mC]*eT*eG*eG*e[5mC]*eA*eA*eT*eG*eT*eG*eA*eT) [compound 327889]	73
327919 (antisense eG*eA*eA*eA*e[5mC]*e[5mC]*e[5mC]*eA*eG*e[5mC]*eA*eG*eA*e[5mC]*eA*eA*eT*eG*eT*eA*eG*e[5mC]*eT) [compound 327919]	154
327925 (antisense eT*eA*eG*e[5mC]*eT*eG*eG*eT*eT*eG*eA*eA*eG*eG*eG*eG*eA*e[5mC]*e[5mC]*eA*eA) [compound 327925]	166
338664 (antisense e[5mC]*eA*eG*eA*e[5mC]*eT*e[5mC]*e[5mC]*e[5mC]*eA*eA*e[5mC]*eT*eG*eA*e[5mC]*e[5mC]*eA*eG*eA) [compound 338664]	100
327880 (antisense eA*e[5mC]*eA*eA*eA*eT*eT*e[5mC]*eG*eG*eT*eT*e[5mC]*eT*eA*e[5mC]*eA*eG*eG*eG*eT*eA) [compound 327880]	136
327905 (antisense e[5mC]*eA*eG*eA*e[5mC]*eT*e[5mC]*e[5mC]*eG*eG*eT*eG*eG*eA*eA*eT*eG*eA*eA*eG*eG*eA) [compound 327905]	115
